# Subject of test: T1, human PD-L1 ECD-His (human, UniProt Q9NZQ7 19-238)
# T1 construct: extracellular domain; Analyte in all SPR and BLI runs; also called hPD-L1_ECD-His; hPD-L1 ECD-His; not shown: His tag
# Protocol notes: SPR, ratio of KD to ref-1
Measured endpoint: Improvement over ref-1 (fold)
Supply the numeric figure in fold, leaving out any unit text.

Query (binder): PL3 IgG2 (antibody, V domains shown, Human IgG2) VH: QVQLVQSGAEVKKPGSSVKVSCKASGGTFSSYTISWVRQAPGQGLEWMGRIIPILGIANYAQKFQGRVTITADKSTSTAYMELSSLRSEDTAVYYCARSRDGYSFGAFDIWGQGTLVTVSS VL: QSVVTQPPPVSGAPGQRVTISCTGSSSNIGAGYDVHWYQQLPGTAPKLLIYGNSNRPSGVPDRFSGSKSGTSASLAITGLQAEDEADYYCQSYDSSLSAPVVFGGGTKLTVL ; field requested: Improvement over ref-1
0.1
